Exercise: state measured TGI for each of the compounds provided.
- Test system: HCT-116
- test-details: Cytotoxicity against human HCT116 cells after 2 days by sulforhodamine B assay
- Assay type: functional
- study-conditions: HCT-116, 48 h
One number for each entry, in µM.

CCC(=C(c1ccc(OCCN(C)C)cc1)c1ccc(OC(=O)CCCCC(=O)C2=C(C)/C(=C/c3[nH]c(-c4ccc[nH]4)cc3OC)N=C2C)cc1)c1ccccc1	13.8
CC/C(=C(/c1ccc(OCCN(C)C)cc1)c1ccc(OC(=O)CCCCCCCCC(=O)C2=C(C)/C(=C/c3[nH]c(-c4ccc[nH]4)cc3OC)N=C2C)cc1)c1ccccc1	21.9

Next, consider the following compound.
# input Given the compound `CC/C(=C(/c1ccc(OCCN(C)C)cc1)c1ccc(OC(=O)CCC(=O)C2=C(C)/C(=C/c3[nH]c(-c4ccc[nH]4)cc3OC)N=C2C)cc1)c1ccccc1` , what is its reported TGI?
# output 3.28

====

- System: MOLT-4
- test-details: Cytotoxicity against human MOLT4 cells after 2 days by sulforhodamine B assay
- Format: functional
- study-conditions: MOLT-4, 48 h
Exercise: state measured TGI for each of the compounds provided.
Numbers only, in µM.

CCC(=C(c1ccc(OCCN(C)C)cc1)c1ccc(OC(=O)CCCCC(=O)C2=C(C)/C(=C/c3[nH]c(-c4ccc[nH]4)cc3OC)N=C2C)cc1)c1ccccc1	25.1

# input // lookup TGI | system=MOLT-4 | key= `CC/C(=C(/c1ccc(OCCN(C)C)cc1)c1ccc(OC(=O)CCC(=O)C2=C(C)/C(=C/c3[nH]c(-c4ccc[nH]4)cc3OC)N=C2C)cc1)c1ccccc1`
# output 4.22

====

- Tested on: PC-3
- test-details: Cytotoxicity against human PC3 cells after 2 days by sulforhodamine B assay
- Type: functional
- study-conditions: PC-3, 48 h
Exercise: state measured GI50 for each of the compounds provided.
Answers are plain numbers, in µM.

Some compounds with recorded GI50:
CC/C(=C(/c1ccc(OCCN(C)C)cc1)c1ccc(OC(=O)CCC(=O)C2=C(C)/C(=C/c3[nH]c(-c4ccc[nH]4)cc3OC)N=C2C)cc1)c1ccccc1	1.78
CCC(=C(c1ccc(OCCN(C)C)cc1)c1ccc(OC(=O)CCCCC(=O)C2=C(C)/C(=C/c3[nH]c(-c4ccc[nH]4)cc3OC)N=C2C)cc1)c1ccccc1	4.57
CC/C(=C(/c1ccc(OCCN(C)C)cc1)c1ccc(OC(=O)CCCCCCCCC(=O)C2=C(C)/C(=C/c3[nH]c(-c4ccc[nH]4)cc3OC)N=C2C)cc1)c1ccccc1	5.89

Next, consider the following compound.
# input Given the compound `COc1cc(-c2ccc[nH]2)[nH]c1/C=C1\N=C(C)C(C(=O)CCC(=O)Oc2ccc3c(c2)CC[C@@H]2[C@@H]3CC[C@]3(C)C(=O)CC[C@@H]23)=C1C` , what is its reported GI50?
# output 7.45

====

- System: SF-539
- test-details: Cytotoxicity against human SF539 cells after 2 days by sulforhodamine B assay
- Format: functional
- study-conditions: SF-539, 48 h
Exercise: state measured GI50 for each of the compounds provided.
Give bare numbers, in µM.

Some compounds with recorded GI50:
CCC(=C(c1ccc(OCCN(C)C)cc1)c1ccc(OC(=O)CCCCC(=O)C2=C(C)/C(=C/c3[nH]c(-c4ccc[nH]4)cc3OC)N=C2C)cc1)c1ccccc1	12.9
CC/C(=C(/c1ccc(OCCN(C)C)cc1)c1ccc(OC(=O)CCC(=O)C2=C(C)/C(=C/c3[nH]c(-c4ccc[nH]4)cc3OC)N=C2C)cc1)c1ccccc1	2.62
CC/C(=C(/c1ccc(OCCN(C)C)cc1)c1ccc(OC(=O)CCCCCCCCC(=O)C2=C(C)/C(=C/c3[nH]c(-c4ccc[nH]4)cc3OC)N=C2C)cc1)c1ccccc1	12

Next, consider the following compound.
# input Given the compound `COc1cc(-c2ccc[nH]2)[nH]c1/C=C1\N=C(C)C(C(=O)CCC(=O)Oc2ccc3c(c2)CC[C@@H]2[C@@H]3CC[C@]3(C)C(=O)CC[C@@H]23)=C1C` , what is its reported GI50?
# output 15.5

====

- System: RPMI-8226
- test-details: Cytotoxicity against human RPMI8226 cells after 2 days by sulforhodamine B assay
- Assay type: functional
- study-conditions: RPMI-8226, 48 h
value-type: LC50 (concentration killing 50% of cells present at time zero)

Some molecules with recorded LC50 (concentration killing 50% of cells present at time zero):
CCC(=C(c1ccc(OCCN(C)C)cc1)c1ccc(OC(=O)CCCCC(=O)C2=C(C)/C(=C/c3[nH]c(-c4ccc[nH]4)cc3OC)N=C2C)cc1)c1ccccc1	> 100 µM
COc1cc(-c2ccc[nH]2)[nH]c1/C=C1\N=C(C)C(C(=O)CCC(=O)Oc2ccc3c(c2)CC[C@@H]2[C@@H]3CC[C@]3(C)C(=O)CC[C@@H]23)=C1C	> 100 µM
CC/C(=C(/c1ccc(OCCN(C)C)cc1)c1ccc(OC(=O)CCCCCCCCC(=O)C2=C(C)/C(=C/c3[nH]c(-c4ccc[nH]4)cc3OC)N=C2C)cc1)c1ccccc1	> 100 µM

# input // lookup LC50 (concentration killing 50% of cells present at time zero) | system=RPMI-8226 | key= `CC/C(=C(/c1ccc(OCCN(C)C)cc1)c1ccc(OC(=O)CCC(=O)C2=C(C)/C(=C/c3[nH]c(-c4ccc[nH]4)cc3OC)N=C2C)cc1)c1ccccc1`
# output > 100 µM

====

Exercise: state measured GI50 for each of the compounds provided.
- System: SK-OV-3
- test-details: Cytotoxicity against human SKOV3 cells after 2 days by sulforhodamine B assay
- Type: functional
- study-conditions: SK-OV-3, 48 h
One number for each entry, in µM.

CC/C(=C(/c1ccc(OCCN(C)C)cc1)c1ccc(OC(=O)CCC(=O)C2=C(C)/C(=C/c3[nH]c(-c4ccc[nH]4)cc3OC)N=C2C)cc1)c1ccccc1	7.17

Next, consider the following compound.
# input Given the compound `CCC(=C(c1ccc(OCCN(C)C)cc1)c1ccc(OC(=O)CCCCC(=O)C2=C(C)/C(=C/c3[nH]c(-c4ccc[nH]4)cc3OC)N=C2C)cc1)c1ccccc1` , what is its reported GI50?
# output 14.1

====

- Tested on: PC-3
- test-details: Cytotoxicity against human PC3 cells after 2 days by sulforhodamine B assay
- Assay type: functional
- study-conditions: PC-3, 48 h
Exercise: state measured TGI for each of the compounds provided.
One number for each entry, in µM.

CC/C(=C(/c1ccc(OCCN(C)C)cc1)c1ccc(OC(=O)CCC(=O)C2=C(C)/C(=C/c3[nH]c(-c4ccc[nH]4)cc3OC)N=C2C)cc1)c1ccccc1	17.2

Next, consider the following compound.
# input Given the compound `CCC(=C(c1ccc(OCCN(C)C)cc1)c1ccc(OC(=O)CCCCC(=O)C2=C(C)/C(=C/c3[nH]c(-c4ccc[nH]4)cc3OC)N=C2C)cc1)c1ccccc1` , what is its reported TGI?
# output 20.4

====

- Test system: UACC-62
- test-details: Cytotoxicity against human UACC62 cells after 2 days by sulforhodamine B assay
- Type: functional
- study-conditions: UACC-62, 48 h
value-type: TGI
A complete answer gives the number and then names the unit.

COc1cc(-c2ccc[nH]2)[nH]c1/C=C1\N=C(C)C(C(=O)CCC(=O)Oc2ccc3c(c2)CC[C@@H]2[C@@H]3CC[C@]3(C)C(=O)CC[C@@H]23)=C1C	17.6 µM
CC/C(=C(/c1ccc(OCCN(C)C)cc1)c1ccc(OC(=O)CCCCCCCCC(=O)C2=C(C)/C(=C/c3[nH]c(-c4ccc[nH]4)cc3OC)N=C2C)cc1)c1ccccc1	18.2 µM
CC/C(=C(/c1ccc(OCCN(C)C)cc1)c1ccc(OC(=O)CCC(=O)C2=C(C)/C(=C/c3[nH]c(-c4ccc[nH]4)cc3OC)N=C2C)cc1)c1ccccc1	3.78 µM

Next, consider the following molecule.
# input Given the molecule `CCC(=C(c1ccc(OCCN(C)C)cc1)c1ccc(OC(=O)CCCCC(=O)C2=C(C)/C(=C/c3[nH]c(-c4ccc[nH]4)cc3OC)N=C2C)cc1)c1ccccc1` , what is its reported TGI?
# output 17.8 µM

====

- Test system: M14
- test-details: Cytotoxicity against human M14 cells after 2 days by sulforhodamine B assay
- Format: functional
- study-conditions: M14, 48 h
Exercise: state measured GI50 for each of the molecules provided.
Numbers only, in nM.

Could you tell me GI50 for each of these molecules? They are listed below.
1. CCC(=C(c1ccc(OCCN(C)C)cc1)c1ccc(OC(=O)CCCCC(=O)C2=C(C)/C(=C/c3[nH]c(-c4ccc[nH]4)cc3OC)N=C2C)cc1)c1ccccc1
2. COc1cc(-c2ccc[nH]2)[nH]c1/C=C1\N=C(C)C(C(=O)CCC(=O)Oc2ccc3c(c2)CC[C@@H]2[C@@H]3CC[C@]3(C)C(=O)CC[C@@H]23)=C1C
3. CC/C(=C(/c1ccc(OCCN(C)C)cc1)c1ccc(OC(=O)CCCCCCCCC(=O)C2=C(C)/C(=C/c3[nH]c(-c4ccc[nH]4)cc3OC)N=C2C)cc1)c1ccccc1
4. CC/C(=C(/c1ccc(OCCN(C)C)cc1)c1ccc(OC(=O)CCC(=O)C2=C(C)/C(=C/c3[nH]c(-c4ccc[nH]4)cc3OC)N=C2C)cc1)c1ccccc1

# output
1820
12400
2140
2090

meta.source: ChEMBL document CHEMBL2417509
